Target: LXR α LBD protein (Homo sapiens (Human))
Sequence (Q13133 209-447): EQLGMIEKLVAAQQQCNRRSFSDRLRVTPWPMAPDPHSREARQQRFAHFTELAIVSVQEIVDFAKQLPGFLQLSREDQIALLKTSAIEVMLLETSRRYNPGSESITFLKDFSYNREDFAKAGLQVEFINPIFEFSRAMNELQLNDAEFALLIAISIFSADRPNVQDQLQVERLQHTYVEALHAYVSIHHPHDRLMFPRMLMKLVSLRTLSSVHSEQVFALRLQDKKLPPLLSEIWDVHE
Assay: LXR α radioligand binding assay (SPA, competition with [3H]TO901317)
Conditions: Biological Test Example 1; read-out: LXRα Binding Ki
Record form. Attribute: Ki. Fill in for each entry.

## Task Recorded Ki of CC(C)[C@H]1CN(c2ccc(CO)c(S(C)(=O)=O)c2)CCN1C[C@@H]1CCN(CC(F)(F)F)C1 (single isomer, unassigned) [48-59] , please.
## Result 3.16 µM

## Task I have this molecule here, CS(=O)(=O)c1cccc(N2CCN(CC3CCC(C(F)(F)F)O3)[C@@H](c3ccc(F)cc3)C2)c1 (some centres unmarked) [48-74] , and I need its recorded Ki.
## Result 11.4 µM

## Task Entry under review: CC(=O)NCc1ccc(N2CCN(c3nccc(C(F)(F)F)n3)[C@H](C(C)C)C2)cc1S(C)(=O)=O [Cpd No 54-1] . Reported Ki?
## Result 0.716 µM

## Task For CC(C)[C@H]1CN(c2ccc(CO)c(S(C)(=O)=O)c2)CCN1C[C@H]1CCN(CC(F)(F)F)C1 (single isomer, unassigned) [48-58] , what is its reported Ki?
## Result > 3.33 µM

## Task Query: Ki; subject: CC(C)[C@H]1CN(c2ccc(CO)c(S(C)(=O)=O)c2)CCN1CC1CCN(CC(F)(F)F)CC1 [48-50]
## Result 0.587 µM

###

What pIC50 was measured for each of the following?
Molecular target: Gal4 DNA binding domain fused to the LBD of LXRα in HEK293 cells (Homo sapiens (Human), UniProt Q13133)
Experiment: LXR luciferase transcriptional reporter gene assay, antagonist mode (200 nM T0901317), LXRα
Assay type: cell-based
Details: antagonist mode, 200 nM T0901317, HEK293 reporter gene assay; read-out: Cell LXRα IC50
Units for pIC50: none; it is -log10 of a concentration expressed in mol/L.

## Task Report pIC50 for CS(=O)(=O)c1cccc(N2CCN(C[C@@H]3CCN(CC(F)(F)F)C3)[C@@H](c3ccccc3)C2)c1 (single isomer, unassigned) please.
## Result 6.06

## Task # input molecule: CC(C)[C@@H]1CN(c2cc(F)c(CO)c(S(C)(=O)=O)c2)CCN1c1ncc(C(N)=O)c(C(F)(F)F)n1 ; wanted: its pIC50
## Result 5.59

## Task Suppose we examine the molecule CS(=O)(=O)c1cccc(N2CCN(C[C@H]3CC[C@@H](C(F)F)CC3)[C@@H](c3ccccc3)C2)c1 (single isomer, unassigned) ; what pIC50 value has been reported?
## Result 5.87

## Task Form field: reported pIC50 of CC(C)(C)OC(=O)N1CCN(c2cccc(S(C)(=O)=O)c2)C[C@H]1Cc1ccccc1
## Result 5.33

## Task GET /values?readout=pIC50&item= CC(C)[C@@H]1CN(c2ccc(F)c(S(C)(=O)=O)c2)CCN1c1ncc(CN2CCOCC2)c(C(F)(F)F)n1
## Result 5.93

## Task Look at this molecule and give its reported pIC50. CC(C)COC(=O)N1CCN(c2cccc(S(C)(=O)=O)c2)C[C@H]1C(C)C
## Result 5.29

## Task Report pIC50 for CC(C)[C@@H]1CN(c2ccc(F)c(S(C)(=O)=O)c2)CCN1c1ncc(CN(C)C(C)(C)C)c(C(F)(F)F)n1 please.
## Result 5.21

## Task Look up pIC50: CC(C)[C@@H]1CN(c2cc(F)c(CO)c(S(C)(=O)=O)c2)CCN1c1ncc(CO)c(C(F)(F)F)n1
## Result 5.41

## Task pIC50 for CNS(=O)(=O)c1cc(N2CCN(c3ncc(C(C)(C)O)c(C(F)(F)F)n3)[C@H](C(C)C)C2)ccc1F ?
## Result 5.70

## Task Dear colleague, I am looking for the recorded pIC50 of the following molecule: CS(=O)(=O)c1cccc(N2CCN(C[C@@H]3CCC[C@H](C(F)(F)F)C3)[C@@H](c3ccc(F)cc3)C2)c1 (single isomer, unassigned)
## Result 6.38

## Task Any idea what pIC50 was measured for CC(C)[C@@H]1CN(c2ccc(F)c(S(C)(=O)=O)c2)CCN1c1ncc(C(=O)N2CCOCC2)c(C(F)(F)F)n1 ?
## Result 5.64

## Task Reported pIC50, molecule CS(=O)(=O)c1cccc(N2CCN(CC3CCN(CC(F)(F)F)CC3)[C@@H](c3ccccc3)C2)c1 (single isomer, unassigned) : ____
## Result 5.32

## Task Field request: pIC50 | item: CC(C)[C@@H]1CN(c2ccc(F)c(S(C)(=O)=O)c2)CCN1c1ncc(C(=O)N(C)CCCO)c(C(F)(F)F)n1
## Result 5.46

## Task # get_value(readout='pIC50', item= CCOC(=O)CN(C)C(=O)c1cnc(N2CCN(c3ccc(F)c(S(C)(=O)=O)c3)C[C@H]2C(C)C)nc1C(F)(F)F )
## Result 5.82

## Task // lookup pIC50 for CC(C)[C@@H]1CN(c2ccc(C#N)c(S(C)(=O)=O)c2)CCN1c1nccc(C(F)(F)F)n1
## Result 5.22

## Task Entry under review: CC(C)[C@@H]1CN(c2ccc(CO)c(S(C)(=O)=O)c2)CCN1c1ncc(C(N)=O)c(C(F)(F)F)n1 . Reported pIC50?
## Result 5.44

## Task Which pIC50 is reported for this molecule? CC(C)[C@@H]1CN(c2cccc(S(C)(=O)=O)c2)CCN1c1ccnc(C(F)(F)F)n1
## Result 5.34

## Task Endpoint output: pIC50 of CC(C)[C@@H]1CN(c2ccc(F)c(S(C)(=O)=O)c2)CCN1c1ncc(C(N)=O)c(C(F)(F)F)n1 . Value?
## Result 5.43

## Task So what does the record say about pIC50 for COCCN(C)Cc1cnc(N2CCN(c3ccc(F)c(S(C)(=O)=O)c3)C[C@H]2C(C)C)nc1C(F)(F)F ?
## Result 5.79

## Task State the recorded pIC50 for this entry: CS(=O)(=O)c1cccc(N2CCN(C[C@@H]3CCC[C@@H](C(F)(F)F)C3)[C@@H](c3ccc(F)cc3)C2)c1 (single isomer, unassigned)
## Result 7.11

## Task If you can, please state the reported pIC50 value of CS(=O)(=O)c1cccc(N2CCN(Cc3ccc(C(F)(F)F)cc3)[C@@H](c3ccc(F)cc3)C2)c1 .
## Result 5.50

## Task Please report the recorded pIC50 for CC(C)[C@@H]1CN(c2ccc(F)c(S(C)(=O)=O)c2)CCN1c1ncc(C(=O)N(C)CCC(C)(C)O)c(C(F)(F)F)n1 .
## Result 5.58
